Data origin: ChEMBL document CHEMBL1133007

Listing of entries alongside the reported logD.
# assay_info: Evaluated for the apparent partition coefficient between 1-octanol and phosphate buffer at pH 7.4
# Type: physicochemical
# experimental_parameters: 1-octanol/phosphate buffer
recorded_endpoint: logD

* COc1ccc2cc(C(C)C(=O)OCCCCOC(=O)CN3CCN(C)CC3)ccc2c1 (stereo not given) | 1.3
* COc1ccc2cc(C(C)C(=O)OCCOC(=O)CN3CCOCC3)ccc2c1 (stereo not given) | 2.14
* COc1ccc2cc(C(C)C(=O)OCCOC(=O)CN3CCN(C)CC3)ccc2c1 (stereo not given) | 1.16
* COc1ccc2cc(C(C)C(=O)OCCCCOC(=O)CCCN3CCN(C)CC3)ccc2c1 (stereo not given) | 2.69
* COc1ccc2cc(C(C)C(=O)OCCCCOC(=O)CCN3CCN(C)CC3)ccc2c1 (stereo not given) | 3.04
